System: alpha 2 receptor
Experiment: Radioligand binding, [3H]rauwolscine, rat cerebral cortices
Particulars: Ki alpha 1/Ki alpha-2
Procedure: The compounds were assessed for alpha-adrenergic receptor subtype selectivity by use of radioligand binding techniques as described previously (DeBernardis et. al. J. Med. Chem. 28, 1398 (1985)).
Counter-ions that a name gives are not always drawn.
Sorting guide: entries reporting alpha-2 - Selectivity Ki alpha 1/Ki alpha-2 beneath 70 go in the true pile, the rest go in the false pile.

Find out if reported alpha-2 - Selectivity Ki alpha 1/Ki alpha-2 for COc1ccc2c(c1)CCC2CN1CCC(c2ccccc2)C1 (stereo not drawn) [Example 152, hydrochloride] is less than 70
true

Next:
Check if alpha-2 - Selectivity Ki alpha 1/Ki alpha-2 falls below 70 for COc1ccc(C)c2c1CCCC2CN(C)CCc1cccs1 (stereo not drawn) [Example 36, hydrochloride] .
false

Next compound: COc1ccc2c(c1)CCCC2CN1CCC(c2ccccc2)C1 (stereo not drawn) [Example 121, hydrochloride]
false

Same question, CCOc1ccc2c(c1)CCCC2CN(C)CCc1cccc(N)c1 (stereo not drawn) [Example 69, dihydrochloride] this time
false

Now this one: Nc1ccc2c(c1)CCCC2CN1CCC(c2ccccc2)C1 (stereo not drawn) [Example 156, dihydrochloride]
true

###

Target Or Test System: alpha 2 receptor (Rattus norvegicus, UniProt P22909)
Construct: rat cerebral cortices; from tissue; host or cells: rat cerebral cortices
Sequence (P22909 whole entry): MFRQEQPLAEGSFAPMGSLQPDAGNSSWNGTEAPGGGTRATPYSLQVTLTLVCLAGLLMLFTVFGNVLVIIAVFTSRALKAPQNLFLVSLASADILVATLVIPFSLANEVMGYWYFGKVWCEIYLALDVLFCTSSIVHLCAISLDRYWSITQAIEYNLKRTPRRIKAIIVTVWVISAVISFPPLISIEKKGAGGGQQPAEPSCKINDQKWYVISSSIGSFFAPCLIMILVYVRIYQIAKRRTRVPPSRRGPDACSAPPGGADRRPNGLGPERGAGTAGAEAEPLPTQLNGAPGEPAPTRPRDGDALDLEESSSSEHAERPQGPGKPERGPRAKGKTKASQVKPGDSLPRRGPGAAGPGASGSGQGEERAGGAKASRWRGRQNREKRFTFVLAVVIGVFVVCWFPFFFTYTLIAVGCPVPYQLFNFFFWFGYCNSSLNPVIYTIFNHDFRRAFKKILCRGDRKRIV
Experiment: Radioligand binding, [3H]rauwolscine, rat cerebral cortices
Where a name gives a salt, the structure may show the parent alone.
Recorded Endpoint: Ki
The answer consists of two parts: a number and, after it, its unit.

Give Ki (alpha 2 receptor (Rattus norvegicus, UniProt P22909)) of the following molecule: COc1ccc2c(c1)CCCC2CN(C)CCC1CCCC1 (stereo not shown) [Example 6f, hydrochloride]
6.5 nM

###

Target Or Test System: alpha 2 receptor (Rattus norvegicus)
Construct: rat cerebral cortices; from tissue; host or cells: rat cerebral cortices
Experiment: Radioligand binding, [3H]rauwolscine, rat cerebral cortices
Particulars: read-out: Ki alpha-2
Counter-ions that a name gives are not always drawn.
Recorded Endpoint: pKi
Kindly note that pKi refers to -log10 of the concentration in mol/L and answer with the value alone.

Field: pKi (alpha 2 receptor (Rattus norvegicus)). Entry: CN(CCc1cccc(O)c1)CC1CCCc2cc(O)ccc21 (stereo not drawn) [Example 82, hydrochloride]
8.40

And the next one, COc1ccc2c(c1)CCCC2CN(C)CCC1CCCS1 (stereo not drawn) [Example 6h, hydrochloride] ?
8.46

// repeat for CN(CCc1cccs1)CC1CCCc2c1ccc(O)c2O (stereo not drawn) [Example 87, hydrochloride] and report
8.80

Okay, and c1csc(C2CCN(CC3CCCc4c3ccc3c4OCO3)C2)c1 (stereo not drawn) ?
8.92

CN(CCc1cccs1)CC1CCCc2ccccc21 (stereo not drawn) [Example 22, hydrochloride] , same question.
8.89

Shift focus to the following entry.
Can you look up pKi on alpha 2 receptor (Rattus norvegicus) for CN(CCc1cccs1)CC1CCCc2c1ccc(O)c2I (stereo not drawn) [Example 115, hydrochloride] ?
8.52

###

Target Or Test System: alpha 2 receptor (Rattus norvegicus)
Construct: rat cerebral cortices; from tissue; host or cells: rat cerebral cortices
Experiment: Radioligand binding, [3H]rauwolscine, rat cerebral cortices
Particulars: rat cerebral cortices, [3H]rauwolscine; read-out: Ki alpha-2
Counter-ions that a name gives are not always drawn.
Items are presented alongside their recorded Ki.
Could you give me the number in nM? Just the number is fine.

Tell me the measured Ki of Fc1ccc2c(c1)CCCC2CN1CCC(c2cccs2)C1 (centres unmarked) [Example 149] , please.
4.9

Next, consider the following compound.
What does the record list as Ki for COc1ccc2c(c1)CCC2CN1CCC(c2ccccc2)C1 (centres unmarked) [Example 152, hydrochloride] ?
4.8
